- Test system: BDF1 mice, P388 leukemia ip, median survival T/C
- assay.info: NCI In Vivo Anticancer Drug Screen. Data for tumor model P388 Leukemia (intraperitoneal) in B6D2F1 (BDF1) mice
- test.conditions: endpoint: median survival time; dose: 25.0 mg/kg/injection; schedule: Q01DX009 (ip); vehicle: saline with Tween-80
Toxic doses and inconclusive results are not listed. How the source made its calls: active means survival T/C of 150% or more; inactive means T/C below 125% in these data.
Select the correct class. Options are active, inactive and nothing else.

{"columns": ["molecule", "classification"],
 "data": [
  ["CCCCOc1ccc(C(=O)NN)cc1", "inactive"],
  ["NC(=S)N/N=C\\c1nccc2c(N)cccc12", "active"],
  ["Oc1c(Cl)c(Cl)c(Cl)c(Cl)c1Cl (tested in a mixture with another compound)", "inactive"],
  ["O=[N+]([O-])c1cccc2c1ccc[n+]2Cc1ccccc1", "inactive"],
  ["COc1ccc(OC)c(NC=O)c1", "inactive"]
]}

Next item in the queue.
Hi, do you know how `O=C1NC(=O)C(c2ccc(C(F)(F)F)cc2)(c2ccc(C(F)(F)F)cc2)N1` came out in this test?
inactive
